# Test system: P388
# ASSAY DETAILS: Induction of apoptosis in P388D1 cell line
# Format: functional, Mus musculus, DBA/2
# Parameters: concentration or dose not given beside the values
MEASURED ATTRIBUTE: Activity

>>> assay_value("CCCCCCCC(=O)CCCC(=O)N[C@H]1CCOC1=O")
"97.7%"
>>> assay_value("O=C(O)CCC(=O)OCCCCCCCCCC(=O)CC(=O)N[C@H]1CCOC1=O")
"114%"
>>> assay_value("O=C(CCCCCCCCCCCc1ccccc1)CC(=O)N[C@H]1CCOC1=O")
"12.2%"
>>> assay_value("O=C(CCCCCCCCCc1ccccc1)CC(=O)N[C@H]1CCOC1=O")
"14.5%"
>>> assay_value("O=C(CCCCCCCCCO)CC(=O)N[C@H]1CCOC1=O")
"109.5%"
>>> assay_value("O=C(CCCCCCCC1CC1)CC(=O)N[C@H]1CCOC1=O")
"38.7%"
>>> assay_value("CCCC(=O)N[C@H]1CCOC1=O")
"100.4%"
>>> assay_value("CCCCCCCCCCCC(=O)CC(=O)N[C@H]1CCOC1=O")
"14.8%"
>>> assay_value("O=C(CCCCCCCc1ccccc1)CC(=O)N[C@H]1CCOC1=O")
"25.2%"
>>> assay_value("O=C(CCCCCc1ccccc1)CC(=O)N[C@H]1CCOC1=O")
"122%"
>>> assay_value("O=C(CCCCCC1CC1)CC(=O)N[C@H]1CCOC1=O")
"122.9%"
>>> assay_value("CCCCCCCC(=O)CC(=O)N[C@H]1CCOC1=O")
"107.7%"
>>> assay_value("CCCCCCCCCC(=O)CC(=O)N[C@@H]1CCOC1=O")
"105%"
>>> assay_value("CCCCCCCCCC(=O)CC(=O)Nc1ccccc1O")
"109.6%"
>>> assay_value("CCCCCCCCCC(=O)CC(=O)N[C@@H](C)C(=O)OC")
"111.2%"
>>> assay_value("CCCCC(=O)CC(=O)N[C@H]1CCOC1=O")
"111%"
>>> assay_value("CCCCCCCCCC(=O)CC(=O)N[C@H]1CCCC[C@@H]1O")
"96.2%"
>>> assay_value("CCCCCCCCC(=O)CCC(=O)N[C@H]1CCOC1=O")
"115.6%"
>>> assay_value("CCCCCCCCCCCC(=O)N[C@H]1CCOC1=O")
"91.1%"
>>> assay_value("CCCCCCCCCC(=O)CC(=O)N[C@H]1CCOC1=O")
"31.9%"
>>> assay_value("CCCCC(=O)N[C@H]1CCOC1=O")
"101.8%"
